CC50 at 72 h reference
# ASSAY_DETAILS: Cytotoxicity against human HepG2 cells after 72 hrs by MTT assay
# Type: cell-based

| SMI | VALUE_UNITS | VALUE_RELATION_SIGN | CC50 at 72 h |
| --- | --- | --- | --- |
| Clc1ccc2c(c1)nc(C(Cl)(Cl)Cl)c1cccn12 | µM | = | 9.8 |
| ClC(Cl)(Cl)c1ncc2ccccc2n1 | µM | = | 61 |
| FC(F)(F)c1cnc2ccccc2n1 | µM | > | 500 |
| c1ccc2nccnc2c1 | µM | > | 500 |
| FC(F)(F)c1nc2ccccc2n2cccc12 | µM | = | 160 |
| Cc1nccc2ccccc12 | µM | = | 179 |
| ClC(Cl)(Cl)c1nc2ccccc2nc1-c1ccccc1 | µM | = | 3.5 |

###

Below, each entry is listed alongside its reported CC50 at 72 h.
# ASSAY_DETAILS: Cytotoxicity against human HepG2 cells after 72 hrs by MTT assay
# Format: cell-based
READOUT_NAME: CC50 at 72 h

| SMI | REPORTED_VALUE |
| --- | --- |
| ClC(Cl)(Cl)c1cnc2ccccc2n1 | 3.1 µM |
| ClC(Cl)(Cl)c1nc2ccccc2n2cccc12 | 41.2 µM |
| N#Cc1ccc2c(c1)nc(C(Cl)(Cl)Cl)c1cccn12 | 17 µM |
| ClC(Cl)(Cl)c1nc2cc(I)ccc2n2cccc12 | 6.6 µM |
| ClC(Cl)c1cnc2ccccc2n1 | 19.3 µM |
| ClC(Cl)(Cl)c1ncnc2ccccc12 | > 500 µM |
| Cc1ccc2ccccc2n1 | > 500 µM |
| Cc1nc2cc(C#N)ccc2n2cccc12 | > 31.5 µM |
| Cc1nc2ccccc2n2cccc12 | 120 µM |
| ClC(Cl)(Cl)c1nccc2ccccc12 | 180 µM |
| COc1ccc2c(c1)nc(C(Cl)(Cl)Cl)c1cccn12 | 35 µM |
| N/C(=N/O)c1ccc2c(c1)nc(C(Cl)(Cl)Cl)c1cccn12 | > 15 µM |
| Cc1ccc2c(c1)nc(C)c1cccn12 | 57 µM |
| Cc1cnc2ccccc2n1 | > 500 µM |

###

Each entry below carries its reported CC50 at 72 h.
# ASSAY_DETAILS: Cytotoxicity against human HepG2 cells after 72 hrs by MTT assay
# Assay type: cell-based
READOUT_NAME: CC50 at 72 h (µM)

| SMI | READOUT_NAME | VALUE_UNITS | VALUE_RELATION_SIGN | REPORTED_VALUE |
| --- | --- | --- | --- | --- |
| ClC(Cl)(Cl)c1nc(-c2ccccc2)c2ccccc2n1 | CC50 at 72 h | µM | > | 125 |
| Cc1ncc2ccccc2n1 | CC50 at 72 h | µM | = | 350 |
| Cc1ccc2c(c1)nc(C(Cl)(Cl)Cl)c1cccn12 | CC50 at 72 h | µM | = | 53 |
| Fc1ccc2c(c1)nc(C(Cl)(Cl)Cl)c1cccn12 | CC50 at 72 h | µM | > | 15 |
| O=C(O)c1ccc2c(c1)nc(C(Cl)(Cl)Cl)c1cccn12 | CC50 at 72 h | µM | = | 106 |
